Recorded Activity, one value per entry.
# TARGET_OF_ASSAY: G-protein coupled receptor 55 (Homo sapiens, UniProt Q9Y2T6)
# Sequence (Q9Y2T6 whole entry): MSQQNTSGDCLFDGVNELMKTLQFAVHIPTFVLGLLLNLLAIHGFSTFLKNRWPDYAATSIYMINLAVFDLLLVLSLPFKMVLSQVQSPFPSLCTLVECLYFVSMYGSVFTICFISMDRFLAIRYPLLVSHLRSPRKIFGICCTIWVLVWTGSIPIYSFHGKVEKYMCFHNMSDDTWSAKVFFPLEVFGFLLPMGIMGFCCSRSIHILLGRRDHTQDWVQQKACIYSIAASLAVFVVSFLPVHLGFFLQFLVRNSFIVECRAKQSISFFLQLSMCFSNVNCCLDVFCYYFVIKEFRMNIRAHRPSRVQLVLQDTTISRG
# PROCEDURE_DETAILS: Agonist activity at human GPR55 expressed in CHOK1 cells at 10 uM by pathHunter beta-arrestin assay relative to control
# Format: cell-based
# STUDY_CONDITIONS: CHO-K1
API: value field is a number in %; no unit string.

Some solved cases for reference:
query_smiles=O=C(NCCc1ccccc1)c1ccc(NC(=S)NC(=O)c2ccc(-c3ccccc3)cc2)cc1 measured_result=99
query_smiles=O=C(NC(=S)Nc1ccc(S(=O)(=O)NCCc2c[nH]c3ccccc23)cc1)c1ccc(-c2ccccc2)cc1 measured_result=132
query_smiles=CC(C)NS(=O)(=O)c1ccc(NC(=S)NC(=O)c2ccc(-c3ccccc3)cc2)cc1 measured_result=185

[in] Can you look up the measured Activity of COc1ccc(C(=O)NC(=S)Nc2ccc(S(=O)(=O)NC(C)C)cc2)cc1 for me?
[out] 91

[in] Continue with CCCNS(=O)(=O)c1ccc(NC(=S)NC(=O)c2ccc(-c3ccccc3)cc2)cc1
[out] 252

[in] Continue with O=C(NC(=S)Nc1ccc(S(=O)(=O)NCc2ccco2)cc1)c1ccc(-c2ccccc2)cc1
[out] 246

[in] Continue with O=C(NCc1ccccc1)c1ccc(NC(=S)NC(=O)c2ccc(-c3ccccc3)cc2)cc1
[out] 100

[in] Continue with CC(=O)NS(=O)(=O)c1ccc(NC(=S)NC(=O)c2cccc3ccccc23)cc1
[out] 99

[in] Continue with CC(C)CNS(=O)(=O)c1ccc(NC(=S)NC(=O)c2ccc(-c3ccccc3)cc2)cc1
[out] 242

FYI, the data here is from ChEMBL document CHEMBL3745614.
